system: LUDLU1; assay: Colony formation (CFU) assay; assay type: cell-based; settings: LUDLU-1; LUDLU1, lung
assay.readout: IC50

{"columns": ["compound", "assay.readout", "data.value"],
 "data": [
  ["COc1ncnc(C2CC2)c1-c1ncc2cnn(Cc3ccc(-c4nc(C(F)(F)F)cn4C)cc3)c2n1 [Formula II]", "IC50", "> 300 nM"],
  ["NC(=O)c1cccc2cn(-c3ccc([C@@H]4CCCNC4)cc3)nc12 [Niraparib, niraparib, reference compound]", "IC50", "> 300 nM"]
]}

* * *

system: HCC1937; experiment: Colony formation (CFU) assay; format: cell-based; settings: Homo sapiens; HCC1937, breast
pIC50: −log10 of the molar value.
assay.readout: pIC50

{"columns": ["molecule", "assay.readout", "result.modifier", "data.value"],
 "data": [
  ["COc1ncnc(C2CC2)c1-c1ncc2cnn(Cc3ccc(-c4nc(C(F)(F)F)cn4C)cc3)c2n1", "pIC50", "<", 6.52],
  ["NC(=O)c1cccc2cn(-c3ccc([C@@H]4CCCNC4)cc3)nc12 [Niraparib, niraparib, reference compound]", "pIC50", "=", 6.61]
]}
